Target: Retinoic acid receptor RXR-alpha (Homo sapiens) (UniProt P19793)
Sequence (P19793 whole entry, looked up): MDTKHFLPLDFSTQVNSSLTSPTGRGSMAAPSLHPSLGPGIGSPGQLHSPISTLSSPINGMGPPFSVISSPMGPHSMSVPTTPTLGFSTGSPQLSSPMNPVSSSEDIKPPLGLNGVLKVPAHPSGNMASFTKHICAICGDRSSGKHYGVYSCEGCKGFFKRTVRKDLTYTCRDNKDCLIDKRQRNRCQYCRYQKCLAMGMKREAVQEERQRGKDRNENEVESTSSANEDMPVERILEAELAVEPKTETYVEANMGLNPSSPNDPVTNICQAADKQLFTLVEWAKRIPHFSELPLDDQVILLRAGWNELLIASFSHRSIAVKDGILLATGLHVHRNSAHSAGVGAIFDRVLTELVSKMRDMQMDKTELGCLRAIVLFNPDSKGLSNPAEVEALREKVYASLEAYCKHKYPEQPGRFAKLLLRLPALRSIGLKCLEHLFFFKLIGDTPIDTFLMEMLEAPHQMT
Assay: qHTS assay to identify small molecule agonists of the RXR signaling pathway (AID 1159527); further: on the % scale 0 is the no-effect control and ±100 the full control effect; nearly all actives have a fitted effect of over 35% in size
Settings: HEK293T RXRa-UAS-bla, beta-lactamase ratio, 16 h; series mostly up to 76.8 µM
Results filed as inconclusive are left out. Calls of active or inactive are those of the source. The call rests on the fitted dose curve.
quantity-name: activation

# annotated cases, reported activation shown
>>> result("[O]=[Bi]")
"-1.06% [at 6.98 µM] (inactive)"
>>> result("O=C(CS)OCCOC(=O)CS")
"inactive"
>>> result("CCCCCCCCCCCCCCCCBr")
"0.932% [at 15.8 µM] (inactive)"
>>> result("CCCCCCCC/C=C\\CCCCCCCC(=O)OC")
"inactive"
>>> result("O=S1OCCO1")
"inactive"
>>> result("C[N+](C)(C)CCOC(N)=O")
"inactive"

// batch mode: one activation value per listed entry
1. CCCC(=O)O[C@]1(C(=O)COC(=O)CC)CC[C@H]2[C@@H]3CCC4=CC(=O)CC[C@]4(C)[C@H]3[C@@H](O)C[C@@]21C
2. CC[C@@H]([C@H](C)O)n1ncn(-c2ccc(N3CCN(c4ccc(OC[C@@H]5CO[C@@](Cn6cncn6)(c6ccc(F)cc6F)C5)cc4)CC3)cc2)c1=O
3. CCCCCCCCCCCCCCC[C@H](O)[C@@H](N)CO
4. Oc1cc(O)c(Cl)cc1Cl
5. COC(=O)c1cc(Cl)ccc1NS(=O)(=O)C(F)(F)F
6. N#C[C@@H]1C[C@@H]2C[C@@H]2N1C(=O)[C@@H](N)C12CC3CC(CC(O)(C3)C1)C2

**A:**
1. 11.5% [at 15.8 µM] (inactive)
2. inactive
3. inactive
4. inactive
5. inactive
6. inactive

Below is a list of compounds. For each, state its recorded activation.
1. CCCCC(CC)CNCC(CC)CCCC (stereo unspecified)
2. COC(=O)c1cc(S(N)(=O)=O)ccc1OC
3. CC(=O)Nc1ccccc1C

**A:**
["inactive", "inactive", "inactive"]

# map each compound to its activation
1. CC1(C)C(=O)N(Br)C(=O)N1Cl
2. NC(=O)Nc1ccc(Cl)cc1
3. CCCCCCCCCOC(C)=O
4. CCC(=O)OC/C=C/c1ccccc1
5. CCN(Cc1cccc(S(=O)(=O)O)c1)c1ccc(C(=C2C=CC(=[N+](CC)Cc3cccc(S(=O)(=O)[O-])c3)C=C2)c2ccccc2)cc1

**A:**
["inactive", "inactive", "inactive", "inactive", "inactive"]

Need activation for each of these compounds.
1. C=CCCCCCCCCCCCCCCCC
2. CCOc1cc(N)c(Cl)cc1C(=O)NCC1CN(Cc2ccc(F)cc2)CCO1 (stereo unspecified)
3. c1cnc2c(n1)CCCC2
4. O=C(CCC1CCN(Cc2ccccc2)CC1)c1ccc2c(c1)NCCCC2

**A:**
1: 0.376% [at 6.98 µM] (inactive); 2: inactive; 3: inactive; 4: inactive

// each listed compound needs a value for activation
1. COC(OC)(C(=O)c1ccccc1)c1ccccc1
2. Cc1oncc1C(=O)Nc1ccc(C(F)(F)F)cc1

**A:**
1: inactive; 2: inactive

src = PubChem BioAssay (Tox21)
